# target: Nitric oxide synthase 1 (Rattus norvegicus)
# Sequence (P29476 whole entry): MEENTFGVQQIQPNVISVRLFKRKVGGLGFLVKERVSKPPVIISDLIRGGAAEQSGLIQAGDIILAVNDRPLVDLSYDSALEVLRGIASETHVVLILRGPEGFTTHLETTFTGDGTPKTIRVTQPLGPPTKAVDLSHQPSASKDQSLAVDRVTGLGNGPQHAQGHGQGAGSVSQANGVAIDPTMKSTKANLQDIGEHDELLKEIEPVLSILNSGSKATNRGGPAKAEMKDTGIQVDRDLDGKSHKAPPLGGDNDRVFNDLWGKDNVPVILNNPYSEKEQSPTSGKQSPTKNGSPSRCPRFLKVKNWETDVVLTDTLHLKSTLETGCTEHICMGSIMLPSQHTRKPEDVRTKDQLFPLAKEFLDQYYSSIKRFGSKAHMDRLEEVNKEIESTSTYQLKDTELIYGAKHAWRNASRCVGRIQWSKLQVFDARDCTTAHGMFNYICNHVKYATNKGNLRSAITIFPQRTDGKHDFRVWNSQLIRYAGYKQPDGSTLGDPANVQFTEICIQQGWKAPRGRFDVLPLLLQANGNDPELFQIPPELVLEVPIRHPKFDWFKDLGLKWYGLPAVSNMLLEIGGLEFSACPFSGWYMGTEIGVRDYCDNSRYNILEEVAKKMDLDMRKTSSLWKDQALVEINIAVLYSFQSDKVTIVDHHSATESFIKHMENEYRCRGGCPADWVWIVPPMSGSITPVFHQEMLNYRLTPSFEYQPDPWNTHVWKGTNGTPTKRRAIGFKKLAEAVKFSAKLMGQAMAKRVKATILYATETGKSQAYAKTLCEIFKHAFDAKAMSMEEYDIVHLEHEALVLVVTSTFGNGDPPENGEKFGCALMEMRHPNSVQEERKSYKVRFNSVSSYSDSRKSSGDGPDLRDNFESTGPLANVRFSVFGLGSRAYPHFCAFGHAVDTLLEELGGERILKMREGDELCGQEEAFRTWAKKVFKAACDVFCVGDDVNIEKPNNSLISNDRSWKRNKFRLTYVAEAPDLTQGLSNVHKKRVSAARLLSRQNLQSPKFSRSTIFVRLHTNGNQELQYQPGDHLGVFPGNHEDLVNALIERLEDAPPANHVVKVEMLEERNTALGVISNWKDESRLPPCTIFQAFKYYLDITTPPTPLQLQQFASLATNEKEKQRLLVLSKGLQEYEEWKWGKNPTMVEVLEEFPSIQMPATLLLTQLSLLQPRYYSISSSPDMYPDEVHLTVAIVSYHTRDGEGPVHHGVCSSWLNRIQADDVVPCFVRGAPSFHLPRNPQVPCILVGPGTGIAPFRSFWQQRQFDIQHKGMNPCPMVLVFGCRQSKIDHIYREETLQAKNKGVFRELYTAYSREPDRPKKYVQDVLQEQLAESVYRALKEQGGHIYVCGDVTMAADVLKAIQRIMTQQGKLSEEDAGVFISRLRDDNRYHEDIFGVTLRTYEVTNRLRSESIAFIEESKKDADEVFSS
# methodSummary: Inhibition of rat nNOS expressed in Escherichia coli using L-arginine as substrate assessed as formation of nitric oxide by hemoglobin capture assay
quantityKind: Ki (nM)
The response must be a number in nM with no trailing unit.

Lookup: Query: Ki; subject: Cc1cc(N)nc(C[C@@H]2CNC[C@@H]2OCCN[C@H](C)Cc2cccc(F)c2)c1
Found: 70

---

Listing of entries alongside the reported Ratio Ki.
# methodSummary: Selectivity ratio of Ki for rat nNOS to Ki for bovine eNOS
Answer field: number only, no words.

Please review the entries below; each comes with its answer.
compound | Ratio Ki
Cc1cc(N)nc(C[C@@H]2CNC[C@@H]2OCCNC2CC2c2cccc(Cl)c2)c1 (mixture of isomers) | 370
Cc1cc(N)nc(C[C@@H]2CNC[C@@H]2OCCN[C@H](C)Cc2cccc(F)c2)c1 | 570
Cc1cc(N)nc(C[C@@H]2CNC[C@@H]2OCCNC(C)Cc2cccc(F)c2)c1 (mixture of isomers) | 370

Turning now to a further compound:
Lookup: Query: Ratio Ki; subject: Cc1cc(N)nc(C[C@@H]2CNC[C@@H]2OCCNC2CC2c2cccc(F)c2)c1 (mixture of isomers)
Found: 300
